tested on: CCRF-CEM leukemia; assay: NCI-60 one-dose screen, 48 h (100 = growth as untreated, 0 = no growth, -100 = all killed); details: 10 µM
The panel holds about 83,000 compounds, 20% with a hit somewhere; the sample as a whole holds those more often.
metricName: growth (%)

compound=Nc1ccc(N=Nc2ccccc2)c2cc(S(=O)(=O)O)ccc12 readoutnumber=99.9
compound=CCOc1nc(-c2ccccc2)cc2c(O)c(C(=O)N/N=C/c3ccccc3O)[nH]c(=O)c12 readoutnumber=69.4
compound=COc1nc(OC)nc(-c2cc(C(=O)c3ccc(Br)cc3)n3cc(C)cc(C)c23)n1 readoutnumber=83.8
compound=COc1cc(CNC(=O)CCCC/C=C/C(C)C)ccc1OCc1nnc(Nc2ccccc2F)o1 readoutnumber=83
compound=CCOC1=C(Cl)C(=O)C(OCC)=C(Cl)C1=O readoutnumber=9.18
compound=O=C1c2ccccc2CCc2ccccc21 readoutnumber=91.8
compound=CC(=O)N(N=O)c1ccc([N+](=O)[O-])cc1Cl readoutnumber=46.8
compound=COc1cc(-c2c3c(cn2CCN2CCCCC2)-c2oncc2CC3)cc(OC)c1OC readoutnumber=103
compound=COc1ccc(Cn2cc3c(c2-c2ccccc2)CCc2cnoc2-3)cc1N readoutnumber=18
compound=COc1ccc(-c2nc(SCC(C)C)nc(Nc3ccccc3)c2C#N)cc1 readoutnumber=64.6
compound="COC(=O)C(C(=O)OC)C(Br)C(Br)C(Br)c1ccccc1 (stereo not drawn)" readoutnumber=-28.9
compound=c1ccc(C(=NNc2nc3ccccc3o2)c2ccccn2)nc1 readoutnumber=3.17
compound=O=S(=O)(O)CCI readoutnumber=106
compound=COc1ccc(C2=C/C(=C\c3ccc(Cl)cc3)C(=O)NN2C(=S)NN)cc1 readoutnumber=91.6
compound=COc1ccc(-n2nnnc2-c2cn[nH]c2C(F)(F)F)cc1 readoutnumber=98.3
compound=Cc1ccc(CC(=O)O)c(C)c1 readoutnumber=101
compound=COC(=O)c1ccc2[nH]c(O)c(C(=Nc3ccc(N(C)C(=O)CN4CCN(C)CC4)cc3)c3ccc([N+](=O)[O-])cc3)c2c1 readoutnumber=21.2
compound=COc1cc(-c2nn(-c3ccc(NC(=O)Nc4cc(C(F)(F)F)cc(C(F)(F)F)c4)cc3)cc2-c2ccncc2)ccc1Cl readoutnumber=16.6

----------
system: SK-OV-3 ovarian; experiment: NCI-60 one-dose screen, 48 h; details: 10 µM unless noted
The panel holds about 83,000 compounds, 20% with a hit somewhere; the sample as a whole holds those more often. The source made the active and inactive calls. How the source made its calls: active means growth percent below 10; inactive means the rest.
Labels: active, inactive

compound=C=C(C)C(C(=O)OCC)(C(=O)OCC)C(C)C classlabel=inactive
compound=CCCCn1c(Cc2ccc(OC)cc2)nc2cc(OC)c(OC)cc2c1=O classlabel=inactive
compound=CCOC(=O)/C(C#N)=C(/CC)OCC classlabel=inactive
compound=CCN(CC)CCNc1ncnc2c1cnn2-c1ccc(Cl)cc1 classlabel=inactive
compound=Nc1ncn([C@@H]2O[C@H](CO)[C@@H](O)C2(F)F)c(=O)n1 classlabel=inactive
compound=O=C(/C(Br)=C/c1ccccc1)c1ccccc1 classlabel=inactive
compound=CCCCCCCCCCCCCCCCNC(=O)Nc1ccc(C)c(NC(=O)NCCCCCCCCCCCCCCCC)c1 classlabel=inactive
compound=COc1cc(Cn2ccc3c2-c2oncc2CC3)cc(OC)c1 classlabel=inactive
compound=O=C(Nc1cccc(Cn2c(=O)[nH]c3ccc(Oc4ncccn4)cc3c2=O)c1)c1cccc(F)c1 classlabel=inactive
compound=Oc1ccc(CN(Cc2ccc(C(F)(F)F)cc2)Cc2ccc(O)c3ncccc23)c2cccnc12 classlabel=inactive
compound=Nc1cc(N)c2nc(NCCc3ccc(Cl)c(Cl)c3)cnc2c1 classlabel=inactive
compound=Cc1ncc(C(=O)Nc2ccc(CN3CCN(C)CC3)c(C(F)(F)F)c2)cc1C#Cc1c(N)ncc2ccccc12 classlabel=active
compound=O=C(Nc1ccc(-n2cc(-c3ccncc3)c(-c3ccc(Cl)c(O)c3)n2)cc1)Nc1ccc(Cl)c(C(F)(F)F)c1 classlabel=active
compound=O=C(/C=C\c1ccc(NCc2ccc(C(=O)O)cc2)cc1)CCl classlabel=inactive
compound=C#CCCCCCCC[C@@H]1OC(=O)[C@H]([C@@H](C)CC)NC(=O)[C@@H]([C@@H](C)CC)NC(=O)CC(=O)[C@@H]1C classlabel=inactive
compound=COC(=O)[C@H](Cc1cn(C)cn1)NC(=O)[C@H](Cc1c[nH]c2ccccc12)NC(=O)Nc1cc(C(F)(F)F)cc(C(F)(F)F)c1 classlabel=active
compound="CC(=O)OCC1O[C@@H](OC(C)=O)[C@@H](NC(=O)NS(=O)(=O)c2ccccc2)C(OC(C)=O)[C@@H]1OC(C)=O (stereo partly specified)" classlabel=inactive
compound=Cc1ccc(C(=O)Nc2ccc(CN3CCN(C)CC3)c(C(F)(F)F)c2)cc1C#Cc1cnc(N)c2ccc(C#N)cc12 classlabel=active
compound=COC(=O)c1ccc2[nH]c(O)c(C(=Nc3ccc(N(C)C(=O)CN4CCN(C)CC4)cc3)c3ccc(C)cc3)c2c1 classlabel=active
compound=CC(C)(C)c1ccc([I+]c2ccc(C(C)(C)C)cc2)cc1 classlabel=inactive
compound=COc1nc(OC)nc(-c2cc(-c3cc(OC)c(OC)c(OC)c3)no2)n1 classlabel=inactive

----------
tested on: COLO 205 colon; experiment: NCI-60 one-dose screen, 48 h; conditions: 10 µM unless noted
This is part of a sample that, as a whole, favours compounds with a hit. Of some 83,000 tested, about 20% had one in any assay. Active and inactive are the calls of the source. How the source made its calls: active means growth percent below 10; inactive means the rest.
Labels: class 1 for active, class 0 for inactive

compound=Cc1ccc(NC(=O)CCl)cc1Cl targetofassay="COLO 205 colon" classlabel="class 0"
compound="CC(=O)OC1CC2C3CCC4C[C@@H](NC(=O)C=C(C)C)CC[C@]4(C)C3CC[C@]2(C)[C@H]1C(C)N(C)C (stereo not given in full)" targetofassay="COLO 205 colon" classlabel="class 1"
compound=CCOC(=O)CSSCC(=O)OCC targetofassay="COLO 205 colon" classlabel="class 0"
compound=COc1ccc(OC)c(Cn2cc3c(c2)-c2oncc2CC3)c1 targetofassay="COLO 205 colon" classlabel="class 0"
compound=N=c1c2c(=O)n3c(nc2nc2sc4ccc(Cl)cc4n12)-c1ccccc1Sc1ccccc1-3 targetofassay="COLO 205 colon" classlabel="class 0"
compound=C[C@]12C=CC(=O)C=C1[C@@H](F)C[C@@H]1[C@@H]2[C@@H](O)C[C@@]2(C)[C@H]1CC[C@]2(O)C(=O)CO targetofassay="COLO 205 colon" classlabel="class 0"
compound=CCCC(=O)Nc1ccccc1C(=O)O targetofassay="COLO 205 colon" classlabel="class 0"
compound=COc1ccc(-c2nc(Nc3nc4ccccc4[nH]3)nc(N)c2C#N)cc1 targetofassay="COLO 205 colon" classlabel="class 0"
compound="CCN(CC)C(=O)C1(C)CCCC2(C)c3cc(OC(C)=O)ccc3CCC12 (stereo not given)" targetofassay="COLO 205 colon" classlabel="class 0"
compound="CC(C)(C)C(=O)OCOP(=O)(OCOC(=O)C(C)(C)C)C1CC(O)N(O)C1=O (stereo not given)" targetofassay="COLO 205 colon" classlabel="class 0"
compound=COc1cccc2c1n([O-])c1cccc(OC)c1[n+]2=O targetofassay="COLO 205 colon" classlabel="class 0"
compound=COc1ccc(Cn2cc3c(c2-c2ccccc2)CCc2cnoc2-3)cc1N targetofassay="COLO 205 colon" classlabel="class 1"
compound=Cc1c(CN(C)C)cc(C(C)C)cc1C(C)C targetofassay="COLO 205 colon" classlabel="class 0"
compound=CCOC1=C(Cl)C(=O)C(OCC)=C(Cl)C1=O targetofassay="COLO 205 colon" classlabel="class 0"
compound=O=C(NCCNCCO)c1cc([N+](=O)[O-])cc([N+](=O)[O-])c1O targetofassay="COLO 205 colon" classlabel="class 0"
compound=CSCc1ncc(-c2ccc(C(F)(F)F)cc2)c(NC2CCCCCC2)n1 targetofassay="COLO 205 colon" classlabel="class 0"
compound=CCCCCCCCc1ccc(CCC(N)(CO)CO)cc1 targetofassay="COLO 205 colon" classlabel="class 1"
compound="COC(=O)C(Cc1cnc[nH]1)N1CC(=O)N2[C@@H](c3ccccc3)SC[C@H]2C1=O (stereo not given in full)" targetofassay="COLO 205 colon" classlabel="class 0"
compound=O=C1C(Cl)=C(SC2=NCCN2)C(=O)c2ccccc21 targetofassay="COLO 205 colon" classlabel="class 0"
compound=C/C=C/C/C=C/[C@H](C)C[C@H](O)[C@@H]1C[C@@H]2O[C@H]2/C=C/[C@@H]2OC(C)(C)O[C@H]2/C=C/C[C@H](C)CC(=O)O1 targetofassay="COLO 205 colon" classlabel="class 0"

----------
test system: HT29 colon; experiment: NCI-60 one-dose screen, 48 h; conditions: 10 µM unless noted
The panel holds about 83,000 compounds, 20% with a hit somewhere; the sample as a whole holds those more often. The source made the active and inactive calls. Rule for the calls: active = growth percent below 10; inactive = the rest.
Outcome codes: 1 (yes) = active, 0 (no) = inactive

molecule=COC(=O)CC(=O)C(=O)OC targetofassay="HT29 colon" classlabel="0 (no)"
molecule=COc1ccc(/C=C(/C(=O)N2CCN(c3ccc(C)cc3)CC2)c2cc(OC)c(OC)c(OC)c2)cc1N targetofassay="HT29 colon" classlabel="1 (yes)"
molecule=COc1cc(-c2cc3cnccc3c3nc(N)c4ccncc4c23)cc(OC)c1OC targetofassay="HT29 colon" classlabel="0 (no)"
molecule=Cc1ccc(NCc2cn(-c3ccc(C(=O)O)cc3)nc2-c2ccc(C(=O)O)cc2)cc1 targetofassay="HT29 colon" classlabel="0 (no)"
molecule=CCOc1ccccc1/C=N\N=C(N/N=C/c1ccccc1OCC)N/N=C/c1ccccc1OCC targetofassay="HT29 colon" classlabel="1 (yes)"
molecule=Cc1ccc(C(C)C)c(OCc2ccc(C(=O)N/N=C/c3cccc(O)c3O)cc2)c1 targetofassay="HT29 colon" classlabel="0 (no)"
molecule=COC1=C(OC)C(=O)c2ccccc2C1=O targetofassay="HT29 colon" classlabel="0 (no)"
molecule=O=C(Nc1ccc(-n2cc(-c3ccncc3)c(-c3ccc(Cl)c(O)c3)n2)cc1)c1cc(Cl)cc(Cl)c1 targetofassay="HT29 colon" classlabel="1 (yes)"
molecule="CC(=O)OC1CC2C3CCC4C[C@@H](NC(=O)C=C(C)C)CC[C@]4(C)C3CC[C@]2(C)[C@H]1C(C)N(C)C (some centres not stated)" targetofassay="HT29 colon" classlabel="1 (yes)"
molecule="CCCCCCC(C)N(CC(C)(C)O)C(=O)c1ccc([N+](=O)[O-])cc1 (configuration not stated)" targetofassay="HT29 colon" classlabel="0 (no)"
molecule=CC(=O)Nc1nc(C)c(C(=O)N/N=C/N2CCCCC2)s1 targetofassay="HT29 colon" classlabel="0 (no)"
molecule=CNc1nc2ncn(C)c2c(=O)[nH]1 targetofassay="HT29 colon" classlabel="0 (no)"
molecule=Oc1ccc(N=Nc2ccc(N=Nc3ccccc3)cc2)cc1 targetofassay="HT29 colon" classlabel="0 (no)"
molecule=CCCCCCCCCCCCOC(=N)N(C)C targetofassay="HT29 colon" classlabel="0 (no)"
molecule=CCCNC(=O)Oc1ccc(/C(=C(/CC)Cc2ccccc2)c2ccc(OCCN(CC)CC)cc2)cc1 targetofassay="HT29 colon" classlabel="1 (yes)"
molecule="CCOC(=O)C1CCCN1C(=O)C1(NC(C)=O)CCCC1 (configuration not stated)" targetofassay="HT29 colon" classlabel="0 (no)"
molecule=CCCCCCCCCCCCCCCCCC1=NCCN1CS(=O)(=O)O targetofassay="HT29 colon" classlabel="1 (yes)"
molecule=O=C(O)c1ccc(Br)nc1 targetofassay="HT29 colon" classlabel="0 (no)"
molecule=CCn1cnc(C[C@H](NC(=O)[C@@H](NC(=O)Nc2cc(C(F)(F)F)cc(C(F)(F)F)c2)C(C)C)C(=O)OC)c1 targetofassay="HT29 colon" classlabel="1 (yes)"
molecule="CC(=O)OC1/C=C\\CC/C=C\\C1 (configuration not stated)" targetofassay="HT29 colon" classlabel="0 (no)"
molecule="O=C(CCCC(=O)Nc1ccc(Cn2nnc3cc(Cl)c(Cl)cc32)cc1)Nc1ccc(CN2N=NC3C=C(Cl)C(Cl)=CC32)cc1 (configuration not stated)" targetofassay="HT29 colon" classlabel="0 (no)"
molecule=COc1cccc2c1nc1cccc(OC)c1[n+]2[O-] targetofassay="HT29 colon" classlabel="0 (no)"
